Experimental System: rat NMDA receptor
Assay Text: rat NMDA radioligand displacement ([3H]MK-801)
Type: binding
Setup Conditions: [3H]MK-801 displacement; n = 1
Structures can show the parent of a compound that is named as a salt.
Parameter Measured: pIC50
Field pIC50 (float): negative decimal logarithm of the concentration in molar.

Prompt: Param item = CCC1CC2CC3c4[nH]c5ccc(O)cc5c4CCN(C2)C13 (stereo not shown) [Noribogaine, Noribogaine hydrochloride] ; retrieve measured pIC50.
Response: 4.37

* * *

Assay Text: Pharmacokinetic study in mice (plasma and brain), with estimated free drug concentrations
Assay type: in vivo, mouse
Setup Conditions: male, C57BL/6, mouse, brain, sc, 10 mg/kg, 0.083 h; mice, 10 mg/kg s.c.; individual animals; read-out: Free Brain Concentration
Where a name gives a salt, the structure may show the parent alone.
Parameter Measured: concentration at 0.083 h (nM)
Please state the figure in nM; there is no need to write the unit.

Prompt: Param item = CCC1CC2CC3c4[nH]c5ccc(O)cc5c4CCN(C2)C13 (stereo not shown) [Noribogaine, Noribogaine hydrochloride] ; retrieve measured concentration at 0.083 h.
Response: 797
